The entries below are paired with their reported Toxicity Data, Average, Mean.
Test system: cells (nuclei count)
Assay context: average of Exp 1-3 (SMW475, SMW477, SMW478), n 9, 5 uM
Answer format: numeric, % implied, no suffix.

Example entries and their recorded answers appear below.
CN(C)CCN(Cc1cocn1)Cc1cccs1 100.64
COC(=O)c1csc(CN(CCN(C)C)Cc2cccs2)c1 110.81
COC(=O)c1csc(CN(CCN(C)C)Cc2ccccc2)c1 110.62
CCN(CC)CCN(Cc1ccccn1)Cc1ccc(C)o1 84.91
COC(=O)c1csc(CN(CCN(C)C)Cc2ccsc2)c1 114.77

input: Need Toxicity Data, Average, Mean of "CCN(CC)CCN(Cc1cccs1)C(=O)c1cccs1" , thanks.
output: 99.62

input: Need Toxicity Data, Average, Mean of "CCN(CC)CCN(Cc1ccccc1)Cc1ccccn1" , thanks.
output: 94.18
